These entries and their values trace back to ChEMBL document CHEMBL3228025.

system: Rattus norvegicus; experiment: Antiinflammatory activity in po dosed CD1 rat assessed as inhibition of carrageenan-induced paw edema administered 1 hr prior to carrageenan challenge measured after 3 hrs
Catalogue of compounds with associated ED40

- compound: "O=C(OCCN1CCN(c2cccc(C(F)(F)F)c2)CC1)c1ccccc1Nc1ccnc2c(C(F)(F)F)cccc12"
  unitInfo: "mg/kg"
  ED40: 120
- compound: "COc1ccc(N2CCN(CCOC(=O)c3ccccc3Nc3ccnc4cc(Cl)ccc34)CC2)cc1"
  unitInfo: "mg/kg"
  ED40: 45
- compound: "O=C(OCCN1CCN(c2ccccc2)CC1)c1ccccc1Nc1ccnc2cc(Cl)ccc12"
  unitInfo: "mg/kg"
  ED40: 120
- compound: "CC(CN1CCN(c2ccccc2)CC1)OC(=O)c1ccccc1Nc1ccnc2cc(Cl)ccc12 (centres undefined)"
  unitInfo: "mg/kg"
  ED40: 300

---

system: Rattus norvegicus; experiment: Antiinflammatory activity in po dosed CD1 rat assessed as inhibition of carrageenan-induced paw edema administered 1 hr prior to carrageenan challenge measured after 3 hrs
Assign Fulfilled whenever ED40 does not fall below 40 mg/kg; assign Not fulfilled whenever it does.

- compound: "O=C(OCCN1CCN(c2ccccc2)CC1)c1ccccc1Nc1ccnc2cc(SC(F)(F)F)ccc12"
  assignedLabel: "Fulfilled"
- compound: "O=C(OCCN1CCN(c2cccc(OC(F)(F)F)c2)CC1)c1ccccc1Nc1ccnc2cc(OC(F)(F)F)ccc12"
  assignedLabel: "Fulfilled"
- compound: "O=C(OCCN1CCN(c2cccc(SC(F)(F)F)c2)CC1)c1ccccc1Nc1ccnc2cc(C(F)(F)F)ccc12"
  assignedLabel: "Not fulfilled"
- compound: "Cc1ccc(Cl)cc1N1CCN(CCOC(=O)c2ccccc2Nc2ccnc3cc(C(F)(F)F)ccc23)CC1"
  assignedLabel: "Fulfilled"
- compound: "O=C(OCCN1CCN(c2cccc(Cl)c2)CC1)c1ccccc1Nc1ccnc2cc(OC(F)(F)F)ccc12"
  assignedLabel: "Fulfilled"
- compound: "O=C(OCCN1CCN(c2cccc(C(F)(F)F)c2)CC1)c1ccccc1Nc1cccc(SC(F)(F)F)c1"
  assignedLabel: "Fulfilled"
- compound: "O=C(OCC(O)CO)c1ccccc1Nc1ccnc2cc(Cl)ccc12 (stereo not drawn)"
  assignedLabel: "Not fulfilled"
- compound: "Cc1cccc(Nc2ccccc2C(=O)OCCN2CCN(c3ccccc3)CC2)c1C"
  assignedLabel: "Fulfilled"
- compound: "O=C(OCCN1CCN(c2cccc(C(F)(F)F)c2)CC1)c1cccnc1Nc1cccc(SC(F)(F)F)c1"
  assignedLabel: "Fulfilled"
- compound: "O=C(OCCN1CCN(c2cccc(Cl)c2)CC1)c1ccccc1Nc1ccnc2cc(Cl)ccc12"
  assignedLabel: "Fulfilled"
- compound: "O=C(OCCN1CCN(c2cccc(Cl)c2)CC1)c1ccccc1Nc1ccnc2c(C(F)(F)F)cccc12"
  assignedLabel: "Fulfilled"
- compound: "Cc1c(N(C)C)c(=O)n(-c2ccccc2)n1C"
  assignedLabel: "Fulfilled"
- compound: "O=C(OCCN1CCN(c2ccccc2)CC1)c1ccccc1Nc1ccnc2c(Cl)cccc12"
  assignedLabel: "Fulfilled"
- compound: "O=C(OCCN1CCN(c2cccc(Cl)c2)CC1)c1ccccc1Nc1cccc(SC(F)(F)F)c1"
  assignedLabel: "Fulfilled"
- compound: "Cc1ccc(Cl)cc1N1CCN(CCOC(=O)c2ccccc2Nc2ccnc3cc(Cl)ccc23)CC1"
  assignedLabel: "Not fulfilled"

---

Reported LD50 at 168 h values for the following compounds.
assay: Acute toxicity in po dosed CD1 mouse after 7 days; format: organism-based; conditions: in vivo
metric: LD50 at 168 h (mg/kg)

- compound: "O=C(OCCN1CCN(c2ccccc2)CC1)c1ccccc1Nc1cccc(OC(F)(F)F)c1"
  metric: "LD50 at 168 h"
  unitInfo: "mg/kg"
  readoutRelation: "="
  resultNumber: 2000
- compound: "O=C(OCCCN1CCN(c2ccccc2)CC1)c1ccccc1Nc1ccnc2cc(Cl)ccc12"
  metric: "LD50 at 168 h"
  unitInfo: "mg/kg"
  readoutRelation: "="
  resultNumber: 2000
- compound: "Cc1c(N(C)C)c(=O)n(-c2ccccc2)n1C [AMINOPYRINE]"
  metric: "LD50 at 168 h"
  unitInfo: "mg/kg"
  readoutRelation: "="
  resultNumber: 800
- compound: "O=C(OCCN1CCN(c2ccccc2)CC1)c1ccccc1Nc1ccnc2cc(OC(F)(F)F)ccc12"
  metric: "LD50 at 168 h"
  unitInfo: "mg/kg"
  readoutRelation: "="
  resultNumber: 1300
- compound: "Cc1cccc(Nc2ccccc2C(=O)OCCN2CCN(c3ccccc3)CC2)c1C"
  metric: "LD50 at 168 h"
  unitInfo: "mg/kg"
  readoutRelation: "="
  resultNumber: 4000
- compound: "O=C(OCCN1CCN(c2cccc(OC(F)(F)F)c2)CC1)c1ccccc1Nc1ccnc2cc(OC(F)(F)F)ccc12"
  metric: "LD50 at 168 h"
  unitInfo: "mg/kg"
  readoutRelation: "="
  resultNumber: 3500
- compound: "CC(CN1CCN(c2ccccc2)CC1)OC(=O)c1ccccc1Nc1ccnc2cc(Cl)ccc12 (stereo unspecified)"
  metric: "LD50 at 168 h"
  unitInfo: "mg/kg"
  readoutRelation: ">"
  resultNumber: 2000
- compound: "O=C(OCCN1CCN(c2cccc(C(F)(F)F)c2)CC1)c1cccnc1Nc1cccc(SC(F)(F)F)c1"
  metric: "LD50 at 168 h"
  unitInfo: "mg/kg"
  readoutRelation: ">"
  resultNumber: 4000
- compound: "Cc1cc(Nc2ccccc2C(=O)OCCN2CCN(c3ccccc3)CC2)c2ccc(Cl)cc2n1"
  metric: "LD50 at 168 h"
  unitInfo: "mg/kg"
  readoutRelation: "="
  resultNumber: 4000
- compound: "O=C(OCCN1CCN(c2ccccc2)CC1)c1ccccc1Nc1ccnc2c(C(F)(F)F)cccc12"
  metric: "LD50 at 168 h"
  unitInfo: "mg/kg"
  readoutRelation: "="
  resultNumber: 3000
- compound: "O=C(OCCN1CCN(c2cccc(Cl)c2)CC1)c1ccccc1Nc1cccc(SC(F)(F)F)c1"
  metric: "LD50 at 168 h"
  unitInfo: "mg/kg"
  readoutRelation: "="
  resultNumber: 2000
- compound: "O=C(OCCN1CCN(c2cccc(SC(F)(F)F)c2)CC1)c1ccccc1Nc1ccnc2cc(Cl)ccc12"
  metric: "LD50 at 168 h"
  unitInfo: "mg/kg"
  readoutRelation: "="
  resultNumber: 3000
- compound: "O=C(OCCN1CCN(c2cccc(Cl)c2)CC1)c1cccnc1Nc1cccc(SC(F)(F)F)c1"
  metric: "LD50 at 168 h"
  unitInfo: "mg/kg"
  readoutRelation: ">"
  resultNumber: 4000
- compound: "O=C(OCCN1CCN(c2cccc(Cl)c2)CC1)c1ccccc1Nc1ccnc2cc(Cl)ccc12"
  metric: "LD50 at 168 h"
  unitInfo: "mg/kg"
  readoutRelation: "="
  resultNumber: 4000
- compound: "O=C(O)c1ccccc1Nc1ccnc2cc(C(F)(F)F)ccc12"
  metric: "LD50 at 168 h"
  unitInfo: "mg/kg"
  readoutRelation: "="
  resultNumber: 1000
- compound: "O=C(OCCN1CCN(c2cccc(OC(F)(F)F)c2)CC1)c1ccccc1Nc1ccnc2cc(Cl)ccc12"
  metric: "LD50 at 168 h"
  unitInfo: "mg/kg"
  readoutRelation: "="
  resultNumber: 4000
- compound: "Cc1ccc(C)c(N2CCN(CCOC(=O)c3ccccc3Nc3ccnc4cc(Cl)ccc34)CC2)c1"
  metric: "LD50 at 168 h"
  unitInfo: "mg/kg"
  readoutRelation: "="
  resultNumber: 4000
- compound: "O=C(OCCN1CCN(c2ccccc2)CC1)c1ccccc1Nc1cccc(C(F)(F)F)c1"
  metric: "LD50 at 168 h"
  unitInfo: "mg/kg"
  readoutRelation: ">"
  resultNumber: 2000
- compound: "Cc1ccc(Cl)cc1N1CCN(CCOC(=O)c2ccccc2Nc2ccnc3cc(Cl)ccc23)CC1"
  metric: "LD50 at 168 h"
  unitInfo: "mg/kg"
  readoutRelation: ">"
  resultNumber: 4000
- compound: "O=C(OCCN1CCN(c2cccc(Cl)c2)CC1)c1ccccc1Nc1ccnc2cc(OC(F)(F)F)ccc12"
  metric: "LD50 at 168 h"
  unitInfo: "mg/kg"
  readoutRelation: "="
  resultNumber: 4000
- compound: "O=C(OCCN1CCN(c2cccc(SC(F)(F)F)c2)CC1)c1ccccc1Nc1ccnc2cc(C(F)(F)F)ccc12"
  metric: "LD50 at 168 h"
  unitInfo: "mg/kg"
  readoutRelation: "="
  resultNumber: 3750
- compound: "O=C(OCCN1CCN(c2cccc(SC(F)(F)F)c2)CC1)c1ccccc1Nc1ccnc2c(C(F)(F)F)cccc12"
  metric: "LD50 at 168 h"
  unitInfo: "mg/kg"
  readoutRelation: ">"
  resultNumber: 3000
- compound: "O=C(OCCN1CCN(c2cccc(Cl)c2)CC1)c1ccccc1Nc1ccnc2c(C(F)(F)F)cccc12"
  metric: "LD50 at 168 h"
  unitInfo: "mg/kg"
  readoutRelation: ">"
  resultNumber: 3000
- compound: "O=C(OCCN1CCN(c2cccc(C(F)(F)F)c2)CC1)c1ccccc1Nc1ccnc2cc(C(F)(F)F)ccc12 [ANTRAFENINE]"
  metric: "LD50 at 168 h"
  unitInfo: "mg/kg"
  readoutRelation: "="
  resultNumber: 4000
- compound: "O=C(OCCN1CCN(c2cccc(OC(F)(F)F)c2)CC1)c1ccccc1Nc1ccnc2cc(C(F)(F)F)ccc12"
  metric: "LD50 at 168 h"
  unitInfo: "mg/kg"
  readoutRelation: "="
  resultNumber: 3500
- compound: "O=C(OCCN1CCN(c2cccc(C(F)(F)F)c2)CC1)c1ccccc1Nc1ccnc2cc(OC(F)(F)F)ccc12"
  metric: "LD50 at 168 h"
  unitInfo: "mg/kg"
  readoutRelation: "="
  resultNumber: 1500
- compound: "O=C(OCCN1CCN(c2ccccc2)CC1)c1ccccc1Nc1ccnc2c(Cl)cccc12"
  metric: "LD50 at 168 h"
  unitInfo: "mg/kg"
  readoutRelation: ">"
  resultNumber: 4000
- compound: "O=C(OCCN1CCN(c2cccc(C(F)(F)F)c2)CC1)c1ccccc1Nc1ccnc2c(C(F)(F)F)cccc12"
  metric: "LD50 at 168 h"
  unitInfo: "mg/kg"
  readoutRelation: ">"
  resultNumber: 3000
- compound: "O=C(OCCN1CCN(c2cccc(C(F)(F)F)c2)CC1)c1ccccc1Nc1cccc(SC(F)(F)F)c1"
  metric: "LD50 at 168 h"
  unitInfo: "mg/kg"
  readoutRelation: ">"
  resultNumber: 4000
- compound: "O=C(OCCN1CCN(c2ccc(Cl)cc2)CC1)c1ccccc1Nc1ccnc2cc(Cl)ccc12"
  metric: "LD50 at 168 h"
  unitInfo: "mg/kg"
  readoutRelation: ">"
  resultNumber: 2000
- compound: "Cc1ccc(Cl)cc1N1CCN(CCOC(=O)c2ccccc2Nc2ccnc3cc(C(F)(F)F)ccc23)CC1"
  metric: "LD50 at 168 h"
  unitInfo: "mg/kg"
  readoutRelation: "="
  resultNumber: 3000
- compound: "O=C(OCCN1CCN(c2cccc(Cl)c2)CC1)c1ccccc1Nc1ccnc2cc(C(F)(F)F)ccc12"
  metric: "LD50 at 168 h"
  unitInfo: "mg/kg"
  readoutRelation: ">"
  resultNumber: 4000
- compound: "Cc1c(Cl)cccc1Nc1ncccc1C(=O)OCCN1CCN(c2cccc(C(F)(F)F)c2)CC1"
  metric: "LD50 at 168 h"
  unitInfo: "mg/kg"
  readoutRelation: ">"
  resultNumber: 4000
- compound: "O=C(OCCN1CCN(c2ccccc2)CC1)c1ccccc1Nc1ccnc2cc(C(F)(F)F)ccc12"
  metric: "LD50 at 168 h"
  unitInfo: "mg/kg"
  readoutRelation: "="
  resultNumber: 2500
- compound: "O=C(OCCN1CCN(c2cc(C(F)(F)F)cc(C(F)(F)F)c2)CC1)c1ccccc1Nc1ccnc2cc(C(F)(F)F)ccc12"
  metric: "LD50 at 168 h"
  unitInfo: "mg/kg"
  readoutRelation: "="
  resultNumber: 4000
- compound: "O=C(OCCN1CCN(c2ccccc2)CC1)c1ccccc1Nc1ccnc2cc(Cl)ccc12"
  metric: "LD50 at 168 h"
  unitInfo: "mg/kg"
  readoutRelation: "="
  resultNumber: 4250
